Experiment: Biodistribution of 99mTc complexes in mice
Format: in vivo, Balb/c mice
Settings: 10 min
property measured: biodistribution kidney (% Injected dose)

[
  {
    "smiles repr": "CC(C)(C)c1ccc(O)c(NC(=O)CN(CCN(CC(=O)O)CC(=O)Nc2cc(C(C)(C)C)ccc2O)CC(=O)O)c1",
    "unit text": "% Injected dose",
    "endpoint result": 3.57
  },
  {
    "smiles repr": "Nc1ccc(O)c(NC(=O)CN(CCN(CC(=O)O)CC(=O)Nc2cc(N)ccc2O)CC(=O)O)c1",
    "unit text": "% Injected dose",
    "endpoint result": 5.97
  },
  {
    "smiles repr": "O=C(O)CN(CCN(CC(=O)O)CC(=O)Nc1ccccc1O)CC(=O)Nc1ccccc1O",
    "unit text": "% Injected dose",
    "endpoint result": 5.58
  }
]

A. O=C(O)CN(CCN(CC(=O)O)CC(=O)Nc1ccc(Cl)cc1O)CC(=O)Nc1ccc(Cl)cc1O
B. Cc1cc(C)c(O)c(NC(=O)CN(CCN(CC(=O)O)CC(=O)Nc2cc(C)cc(C)c2O)CC(=O)O)c1
Form: Entry with minimum biodistribution kidney (choose one): A / B Kindly state the label of the option you pick.
B

Attribution: patent US5807535A
